biological target: CDK1/Cyclin B (Homo sapiens, UniProt P06493); construct: purchased Invitrogen PR4768C; assay: CDK1 kinase activity assay (TR-FRET); type: biochemical
Sequence (P06493 whole entry): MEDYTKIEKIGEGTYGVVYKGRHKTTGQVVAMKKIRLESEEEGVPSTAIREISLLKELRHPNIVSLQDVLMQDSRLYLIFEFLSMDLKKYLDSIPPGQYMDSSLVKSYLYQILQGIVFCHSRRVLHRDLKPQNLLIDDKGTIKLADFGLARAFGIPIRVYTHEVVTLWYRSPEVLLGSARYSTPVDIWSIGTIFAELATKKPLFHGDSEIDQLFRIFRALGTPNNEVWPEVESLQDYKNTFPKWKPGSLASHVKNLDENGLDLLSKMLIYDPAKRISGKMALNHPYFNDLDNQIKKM
Sequence (P14635 whole entry partner): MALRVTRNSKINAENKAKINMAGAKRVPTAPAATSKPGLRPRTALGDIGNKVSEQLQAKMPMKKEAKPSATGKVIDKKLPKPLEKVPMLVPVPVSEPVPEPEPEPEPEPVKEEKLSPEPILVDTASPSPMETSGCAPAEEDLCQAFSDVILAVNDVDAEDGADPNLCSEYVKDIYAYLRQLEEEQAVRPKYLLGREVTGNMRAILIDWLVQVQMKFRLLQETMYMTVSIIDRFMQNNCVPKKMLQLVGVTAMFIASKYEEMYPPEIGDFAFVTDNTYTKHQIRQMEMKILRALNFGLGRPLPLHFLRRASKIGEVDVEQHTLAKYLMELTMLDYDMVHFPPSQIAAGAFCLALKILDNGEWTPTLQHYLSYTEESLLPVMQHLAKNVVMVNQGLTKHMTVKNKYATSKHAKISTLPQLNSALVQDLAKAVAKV
hey, just use YES if measured IC50 is less than 80 nM, otherwise NO

CC(C)NC(=O)O[C@@H]1CC[C@H](c2cc(Nc3ccc(CN4CCN(C)CC4)c(F)c3)n[nH]2)C1 [Compound 134]    NO
CC(C)NC(=O)O[C@@H]1CC[C@H](c2cc(Nc3ccc(N4CCN(C)CC4)cn3)n[nH]2)C1 [Compound 49]    NO
CC(C)NC(=O)O[C@@H]1CC[C@H](c2cc(NC(=O)c3cc(CS(=O)(=O)C4CC4)nn3C)n[nH]2)C1 [Compound 13]    YES
Cn1nc(CS(C)(=O)=O)cc1C(=O)Nc1cc([C@H]2CC[C@@H](OC(=O)N3CCC3(C)C)C2)[nH]n1 [Compound 16]    YES

INPUT: Take the compound CC(C)NC(=O)O[C@@H]1CC[C@H](c2cc(Nc3ccc(C4CCN(C)CC4)cn3)n[nH]2)C1 [Compound 51] and say whether its IC50 is less than 80 nM.
OUTPUT: NO

###

assay: In-vitro liver microsomal stability, human; format: in vitro ADME; settings: human liver microsomes 0.5 mg/mL, 1 µM, NADPH 1 mM, 37 °C
outcome.measure: Remaining amount% at 60 min Human (%)
Numbers only, in %.

COCc1cc(C(=O)Nc2cc([C@H]3CC[C@@H](OC(=O)N4CC5(CCN(C)CC5)C4)C3)[nH]n2)n(C)n1    103
COCc1cc(C(=O)Nc2cc([C@H]3CC[C@@H](OC(=O)NCC=C(F)F)C3)[nH]n2)n(C)n1    90.9
C#CC(C)NC(=O)O[C@@H]1CC[C@H](c2cc(NC(=O)c3cc(COC)nn3C)n[nH]2)C1 (stereo partly shown)    93.5

Please go through the list and note Remaining amount% at 60 min Human for each compound.
1. Cn1nc(CS(C)(=O)=O)cc1C(=O)Nc1cc([C@@H]2C[C@H](OC(=O)N3CCC3(C)C)CO2)[nH]n1
2. COCc1cc(C(=O)Nc2cc([C@H]3CC[C@@H](OC(=O)NC(C)C#N)C3)[nH]n2)n(C)n1 (stereo partly shown)
3. CC(C)NC(=O)O[C@@H]1CC[C@H](c2cc(NC(=O)c3cc(CS(=O)(=O)C4CC4)nn3C)n[nH]2)C1
4. COCc1cc(C(=O)Nc2cc([C@H]3CC[C@@H](OC(=O)NC45CC6CC(CC(C6)C4)C5)C3)[nH]n2)n(C)n1

OUTPUT:
91.3
80.3
80.0
11.0

###

experiment: In-vitro liver microsomal stability, rat; format: in vitro ADME; conditions: SD rat liver microsomes 0.5 mg/mL, 1 µM, NADPH 1 mM, 37 °C
Would you mind telling me the reported Remaining amount% at 60 min Rat of each entry?
Numbers only, in %.

Completed entries (count: 6):
COCc1cc(C(=O)Nc2cc([C@H]3CC[C@@H](OC(=O)NC45CC6CC(CC(C6)C4)C5)C3)[nH]n2)n(C)n1    1.80
CC(C)NC(=O)O[C@@H]1CC[C@H](c2cc(NC(=O)c3cc(CS(C)(=O)=O)nn3C)n[nH]2)C1    101
COCc1cc(C(=O)Nc2cc([C@H]3CC[C@@H](OC(=O)N4CC5(CCN(C)CC5)C4)C3)[nH]n2)n(C)n1    92
COCc1cc(C(=O)Nc2cc([C@H]3CC[C@@H](OC(=O)NCC=C(F)F)C3)[nH]n2)n(C)n1    74.6
COCc1cc(C(=O)Nc2cc([C@H]3CC[C@@H](OC(=O)N(C)C4CCC(=C(F)F)CC4)C3)[nH]n2)n(C)n1 (some centres unmarked)    3.87
CC1(C)CCN1C(=O)O[C@@H]1CC[C@H](c2cc(NC(=O)Cc3ccc(N4CCCC4=O)cc3)n[nH]2)C1    22.8

Please go through the list and note Remaining amount% at 60 min Rat for each compound.
1. CC(C)NC(=O)O[C@@H]1CC[C@H](c2cc(NC(=O)c3cc(CS(=O)(=O)C4CC4)nn3C)n[nH]2)C1
2. COCc1cc(C(=O)Nc2cc([C@H]3C[C@@H](F)[C@@H](OC(=O)NC(C)C)C3)[nH]n2)n(C)n1

OUTPUT:
71.2
104

Every entry's value here was drawn from patent EP4620954A1.
